- System: XF 498 CNS
- test_summary: NCI tumour cell line growth inhibition, 48 h
Parameter TGI: see the listing below.
metric: TGI

compound: CC1=C(C(=O)Nc2ccccc2C)C(c2ccc(Cl)cc2)C(C(=O)Nc2ccccc2C)=C(C)N1
result: > 100 µM
--
compound: CN(C(=O)/C=C/c1ccccc1)C1C2CN3CCC(O2)C13 (stereo not given)
result: > 100 µM
--
compound: Cn1c(=O)c(N=Nc2c(=O)n(C)c(=O)n3c2[nH]c2ccccc23)c2[nH]c3ccccc3n2c1=O
result: > 100 µM
--
compound: CC[O-].CC[O-].O=C([CH-]C(=O)c1ccccc1)CCCCCCCCC(=O)[CH-]C(=O)c1ccccc1.[Ti+4]
result: > 100 µM
--
compound: CCOC(=O)NC(=O)c1cn(CCN2CCN(C(=O)NCCCCCCNC(=O)N3CCN(CCn4cc(C(=O)NC(=O)OCC)c(=O)[nH]c4=O)CC3)CC2)c(=O)[nH]c1=O
result: > 100 µM
--
compound: CNC(C)(C)Cc1ccc(Cl)cc1
result: > 100 µM
--
compound: CC(=O)OCc1c2ccccc2c(C)c2c1cc(F)c1ccccc12
result: 45.2 µM
--
compound: COc1cc(Cl)cc(=O)c(O)c1OC
result: > 100 µM
--
compound: O=C1C[C@H]2CCCN2[C@@H](c2ccccc2)C1
result: > 100 µM
--
compound: O=C1CC(CC(=O)C2CCCCC2=O)C(=O)N1 (stereo not given)
result: > 100 µM
--
compound: O=C1Nc2ccccc2C1(O)C/C(=N/O)c1ccc2ccccc2c1 (stereo not given)
result: > 100 µM
--
compound: Cc1ccc(C)c(NC(=O)C(=O)C(C(=O)c2ccc3ccccc3c2)C2OC(=O)c3ccccc32)c1 (stereo not given)
result: 44 µM
--
compound: c1cc[c]([Sn][c]2ccccc2)cc1
result: 17.9 µM
--
compound: O=c1ncccn1[C@@H]1O[C@H](CO)[C@H](O)C1O (stereo not given in full)
result: > 100 µM
--
compound: CCOC(=O)Cc1nc2ccc3c(c2[nH]c1=O)C(=O)c1ccccc1C3=O
result: > 100 µM

* * *

- Test system: OVCAR-8 ovarian
- test_summary: NCI tumour cell line growth inhibition, 48 h

molecule: CCO/C(=N/S(=O)(=O)C(F)(F)F)N(C(C)C)C(C)C
TGI: > 100 µM
//
molecule: CC(CO)Nc1cc(-c2[nH]c3cccnc3c2-c2ccc(F)cc2)ccn1 (stereo not given)
TGI: > 25 µM
//
molecule: CCCCN(CCCC)Cc1cc(Nc2ccnc3cc(Cl)ccc23)ccc1O
TGI: > 100 µM
//
molecule: O=C(O)CCc1nc2c(n1-c1ccccc1)C(=O)c1ccccc1C2=O
TGI: > 100 µM
//
molecule: CC1=C(C(=O)Nc2ccccc2C)C(c2ccc(Cl)cc2)C(C(=O)Nc2ccccc2C)=C(C)N1
TGI: > 100 µM
//
molecule: COc1cc(C)ccc1C(=O)c1ccc(C)cc1OC
TGI: > 100 µM
//
molecule: O=C(O)CCNS(=O)(=O)c1ccc(NC(=O)c2ccccc2)cc1
TGI: > 100 µM
//
molecule: N#CC(C#N)=C/C=C(\Cl)c1ccc(Cl)cc1
TGI: 31.4 µM
//
molecule: O=C(N/N=C/c1ccccc1O)N/N=C/c1ccccc1O
TGI: > 100 µM
//
molecule: COC(=O)Cc1cc(O)c2c(c1O)C(=O)c1ccccc1C2=O
TGI: > 100 µM
//
molecule: C1CSCCCSCCCSCCCSCCCSCCCSCCCSCCCSC1
TGI: > 100 µM
//
molecule: CC(C)(C)c1ccccc1N1C(=O)c2ccc3c4c(ccc(c24)C1=O)N(c1ccccc1C(C)(C)C)C3=O
TGI: > 100 µM
//
molecule: CCSCCCSCCSCC
TGI: > 100 µM
//
molecule: CO/N=C(\COc1ccc2c(c1)[nH]c1ccccc12)c1ccc(OC)cc1
TGI: 27.5 µM
//
molecule: COC1CC(N)(c2ccccc2)C(O)C(C)O1 (stereo not given)
TGI: > 100 µM

* * *

- Test system: NCI-H460 lung
- test_summary: NCI tumour cell line growth inhibition, 48 h

compound: OC1[C@@H]2[C@@H](O)CCCN2C[C@@H](O)[C@H]1O (stereo not given in full)
op: >
TGI, µM: 100

compound: O=C(O)c1nc(NCc2nc3cc(Cl)ccc3o2)n[nH]1
op: >
TGI, µM: 100

compound: N#C[Se]Cc1cc(-c2ccccc2)n(-c2ccc(S(N)(=O)=O)cc2)n1
op: =
TGI, µM: 0.743

compound: CC(=O)c1c(-c2cccc3ccccc23)c(C#N)c(=S)n(C2OC(CO)C(O)C(O)C2O)c1C (stereo not given)
op: >
TGI, µM: 100

compound: CCC1(O)C(=O)OCc2c1cc1n(c2=O)Cc2cc3ccccc3nc2-1 (stereo not given)
op: =
TGI, µM: 10.7

* * *

- Tested on: HCT-15 colon
- test_summary: NCI tumour cell line growth inhibition, 48 h; in the data active means GI50 below about 0.43 µM; inactive means the rest
Possible outcomes: Yes (active), No (inactive)

molecule: O=S(=O)(/N=c1\scc(-c2ccccc2)n1-c1ccccc1)c1ccc(N2N=C3c4ccccc4CC3C2c2ccc(Cl)cc2)cc1 (stereo not given)
discrete_label: No

molecule: COc1cc(/C=C/C(=O)/C=C/c2cc(OC)c3c(c2)OCO3)cc2c1OCO2
discrete_label: No

molecule: Oc1cccc(Nc2nc3ccccc3c3occc23)c1
discrete_label: No

molecule: CCSC1=NC2C(N(CC)C(=O)N2CC)N1/N=C/C=C/c1ccccc1[N+](=O)[O-] (stereo not given)
discrete_label: Yes

molecule: O=C1/C(=C/c2ccc([N+](=O)[O-])cc2)CN(C(=O)CCN2CCC(=NO)CC2)C/C1=C\c1ccc([N+](=O)[O-])cc1
discrete_label: No

molecule: O=C(O)c1nc(NCc2nc3cc(Cl)ccc3o2)n[nH]1
discrete_label: No

molecule: O=C(c1ccc2ccccc2c1)c1c(C(F)(F)F)n([O-])c2ccc(C(F)(F)F)cc2[n+]1=O
discrete_label: No

molecule: c1ccc(C2ONC3=NCCN32)cc1 (stereo not given)
discrete_label: No

molecule: C/C(=N/O)c1cccc(Nc2cc(-n3nnc4ccccc43)nc3ccccc23)c1
discrete_label: No

molecule: O=S(=O)(Nc1ccc(Br)cc1)c1ccc(-c2cnc(C3CC3)o2)cc1
discrete_label: No

* * *

- Test system: CCRF-CEM leukemia
- test_summary: NCI tumour cell line growth inhibition, 48 h
Parameter TGI: see the listing below.
metric: TGI

molecule: Cc1cc(C)nc(NS(=O)(=O)c2ccc(NC(=O)c3c4ccccc4nc4ccccc34)cc2)n1
system_name: CCRF-CEM leukemia
metric: TGI
result: > 100 µM

molecule: C=CCC1(C#N)C(=S)NC2=C(C(=O)CC(C)(C)C2)C1c1ccccc1 (stereo not given)
system_name: CCRF-CEM leukemia
metric: TGI
result: > 100 µM

molecule: N#CC(C#N)=C/C=C(\Cl)c1ccc(Cl)cc1
system_name: CCRF-CEM leukemia
metric: TGI
result: > 100 µM

molecule: C[N+](C)(C)CCC(=O)CC[N+](C)(C)C
system_name: CCRF-CEM leukemia
metric: TGI
result: 7.42 µM

molecule: COC(=O)c1sc(C(=O)OC)c2c1CS(=O)C2
system_name: CCRF-CEM leukemia
metric: TGI
result: > 100 µM

molecule: O=[N+]([O-])c1ccccc1OCCOc1ccccc1[N+](=O)[O-]
system_name: CCRF-CEM leukemia
metric: TGI
result: > 100 µM

molecule: CCc1c(C#N)c(=O)[nH]c(=O)n1CCN1CCN(C(=O)NCCCCCCNC(=O)N2CCN(CCn3c(CC)c(C#N)c(=O)[nH]c3=O)CC2)CC1
system_name: CCRF-CEM leukemia
metric: TGI
result: > 100 µM

molecule: C=CCc1c(Cl)nc(Cl)nc1Cl
system_name: CCRF-CEM leukemia
metric: TGI
result: 0.0234 µM

molecule: COc1ccc(C2=Nn3c(nnc3-c3cc(Cl)cc(Cl)c3Cl)SC2)cc1
system_name: CCRF-CEM leukemia
metric: TGI
result: > 100 µM

molecule: O=C1CC(CC(=O)C2CCCCC2=O)C(=O)N1 (stereo not given)
system_name: CCRF-CEM leukemia
metric: TGI
result: > 100 µM

molecule: CC1=NNC(=O)C1C1C(=O)NN=C(c2c[nH]c3ccccc23)C1Br (stereo not given)
system_name: CCRF-CEM leukemia
metric: TGI
result: 65.5 µM

molecule: Cc1cc([NH-])c([NH-])cc1C.[Cl][Pt+2][Cl]
system_name: CCRF-CEM leukemia
metric: TGI
result: 61.5 µM

molecule: COc1cc(C)ccc1C(=O)c1ccc(C)cc1OC
system_name: CCRF-CEM leukemia
metric: TGI
result: > 100 µM

molecule: c1ccc(NN(Cc2cnccn2)c2ccccc2)cc1
system_name: CCRF-CEM leukemia
metric: TGI
result: 51.2 µM

molecule: CO/N=C(\COc1ccc2c(c1)[nH]c1ccccc12)c1ccc(OC)cc1
system_name: CCRF-CEM leukemia
metric: TGI
result: > 100 µM

molecule: Cn1nc2ccc([N+](=O)[O-])c(Cn3nnc4ccccc43)c2n1
system_name: CCRF-CEM leukemia
metric: TGI
result: > 100 µM

molecule: COc1cc(Cl)cc(=O)c(O)c1OC
system_name: CCRF-CEM leukemia
metric: TGI
result: > 100 µM

molecule: Cc1ccc(Nc2nc3[nH]ccc3c(=O)[nH]2)cc1
system_name: CCRF-CEM leukemia
metric: TGI
result: > 100 µM

molecule: CCOC(=O)c1c(C)n(Cc2ccc(Cl)cc2Cl)c2c1cc(O)c1[nH]c3c(c12)CCCC3
system_name: CCRF-CEM leukemia
metric: TGI
result: 77.1 µM

molecule: O=c1[nH]c(Nc2ccccc2)nc2c1ncn2CC(O)CSCCO (stereo not given)
system_name: CCRF-CEM leukemia
metric: TGI
result: > 100 µM

molecule: COc1cc(/C=C/C(=O)c2c(C)nc3ccccc3c2/C=C/c2ccccc2)cc(OC)c1OC
system_name: CCRF-CEM leukemia
metric: TGI
result: > 100 µM

molecule: c1ncn(C23C4C5C6C4C2C6C53)n1 (stereo not given)
system_name: CCRF-CEM leukemia
metric: TGI
result: > 100 µM

molecule: O=C(Nc1ccccc1)N(C1=NCC(CI)S1)c1ccc(F)c(F)c1 (stereo not given)
system_name: CCRF-CEM leukemia
metric: TGI
result: 75.9 µM

molecule: O=C(O)CCNS(=O)(=O)c1ccc(NC(=O)c2ccccc2)cc1
system_name: CCRF-CEM leukemia
metric: TGI
result: > 100 µM

molecule: CC12CCC(CC(=O)/C1=C(/Br)I)C2(C)C (stereo not given)
system_name: CCRF-CEM leukemia
metric: TGI
result: 30.5 µM

molecule: Cc1c(/C=N/NC(=O)c2ccccc2O)c(=O)n(-c2ccccc2)n1C
system_name: CCRF-CEM leukemia
metric: TGI
result: > 100 µM

molecule: CN(C)CCNc1ccc2c(=O)n(CCN(C)C)c(=O)n3c4ccc(O)cc4c(=O)c1c23
system_name: CCRF-CEM leukemia
metric: TGI
result: < 0.01 µM

molecule: CC(C)(C)c1ccc(OCCOc2ccc(C(C)(C)C)cc2N)c(N)c1
system_name: CCRF-CEM leukemia
metric: TGI
result: > 100 µM

molecule: CCSC1=NC2C(N(CC)C(=O)N2CC)N1/N=C/C=C/c1ccccc1[N+](=O)[O-] (stereo not given)
system_name: CCRF-CEM leukemia
metric: TGI
result: > 100 µM

molecule: CCC/C(Cl)=N\OC(=O)Nc1ccc(F)cc1
system_name: CCRF-CEM leukemia
metric: TGI
result: 3.85 µM

molecule: CCCCN(CCCC)Cc1cc(Nc2ccnc3cc(Cl)ccc23)ccc1O
system_name: CCRF-CEM leukemia
metric: TGI
result: > 100 µM

molecule: N#CC(N)=Nc1ccccc1
system_name: CCRF-CEM leukemia
metric: TGI
result: > 100 µM

molecule: NC(=O)CNC(=O)[C@@H]1CC(OCCC(=O)O)CN1C(=O)C1CCCN1C(=O)OCc1ccccc1 (stereo not given in full)
system_name: CCRF-CEM leukemia
metric: TGI
result: > 100 µM

molecule: OC1[C@@H]2[C@@H](O)CCCN2C[C@@H](O)[C@H]1O (stereo not given in full)
system_name: CCRF-CEM leukemia
metric: TGI
result: > 100 µM

molecule: Cc1ccc2cnc(N)c(C#Cc3cc(C(=O)Nc4ccc(CN5CCN(C)CC5)c(C(F)(F)F)c4)cnc3C)c2c1
system_name: CCRF-CEM leukemia
metric: TGI
result: 2.85 µM

molecule: C[C@H](c1ccccc1)N1C(=O)[C@@H](O)[C@H]1[C@H](CO)OCc1ccccc1
system_name: CCRF-CEM leukemia
metric: TGI
result: > 100 µM

molecule: CC(=O)c1c(-c2cccc3ccccc23)c(C#N)c(=S)n(C2OC(CO)C(O)C(O)C2O)c1C (stereo not given)
system_name: CCRF-CEM leukemia
metric: TGI
result: > 100 µM

molecule: CCN1C(=O)N(CC)C2C1NN=c1s/c(=C\c3ccc(Cl)cc3Cl)c(=O)n12 (stereo not given)
system_name: CCRF-CEM leukemia
metric: TGI
result: > 100 µM

molecule: Cc1cc2c(C)nn(Cc3ccccc3)c2c(C(=O)O)c1C
system_name: CCRF-CEM leukemia
metric: TGI
result: > 100 µM

molecule: C#CCNC(CSSCC(N)C(=O)O)C(=O)O (stereo not given)
system_name: CCRF-CEM leukemia
metric: TGI
result: > 100 µM

molecule: C=C1CCC2C3(C)COC(C)(C)OC3CCC2(C)C1C/C=C1/C(=O)OCC1OC(C)=O (stereo not given)
system_name: CCRF-CEM leukemia
metric: TGI
result: 11.5 µM

molecule: O=C(O)c1nc(NCc2nc3cc(Cl)ccc3o2)n[nH]1
system_name: CCRF-CEM leukemia
metric: TGI
result: > 100 µM

molecule: O=c1ncccn1[C@@H]1O[C@H](CO)[C@H](O)C1O (stereo not given in full)
system_name: CCRF-CEM leukemia
metric: TGI
result: > 100 µM

molecule: C/C(CC(O)(C(F)(F)F)C(F)(F)F)=N\NC(N)=O
system_name: CCRF-CEM leukemia
metric: TGI
result: > 10 µM

molecule: CCOC(=O)C(C#N)(Cc1c[nH]c2ccccc12)NC(C)=O (stereo not given)
system_name: CCRF-CEM leukemia
metric: TGI
result: > 100 µM
